Data provenance is the OligoGym collection.

Consider the following sequences; for each one, report its sensor-assay potency score (higher = more potent).
Target: NELL2; also: reference of the scale not given here
Assay: pooled miR-30 sensor sort-seq; sequence = guide strand
Conditions: shRNA

Guide cases for sensor-assay potency score (higher = more potent), answers given:
          sequence_record  target_of_assay  result
0  TCGACAGCTACAAACAGCCCTG            NELL2   -0.27
1  TAAGACGTCAATCTGTAGGGAA            NELL2   0.711
2  TTACAAACTTTGCAACAGCTGT            NELL2  -0.672
3  TTGTGATACACTCATCATGTTC            NELL2   -1.15
4  TAACCTTTACAAACTTTGCAAC            NELL2  -0.975

// each listed sequence needs a value for sensor-assay potency score (higher = more potent)
1. TTGCATGTCGTTCCATTCCCTG
2. TTATTTCTCTGTCCTAGCCAAA
3. TAAAATATCCTGTAGCTCCATG
4. TGTCACATTGAACAAAACCATC

[-1.03, -1.55, -0.475, -1.67]
